Assay: chemical genetic growth profiling, strain panel (AID 1159580);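 further: tested at 20 µM; growth read once vehicle control cultures reached saturation at 30 °C; 1 = growth at the plate median or of vehicle wells; lower values mean less growth of the strain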
Conditions: S. cerevisiae deletion strains, growth OD, locus YDR388W
The campaign covered roughly 5,500 compounds. About 2,000 (36%) were called active. About 18% were inconclusive and are not listed. No stated cut-off is given here; in the data, active means normalized growth mostly below about 0.91 (no sharp cut-off); inconclusive means no clear call, values can overlap the other calls; inactive means mostly above about 0.92. Some of the results follow. Where a SMILES comes first, the peptide text is derived from it. The star is where a group is joined. For = O=C*
// one of 1.0 for active, 0.0 for inactive, no free text

Given Nc1ccccc1C(=O)CC(N)C(=O)O (stereo not given) , state the outcome it received in this test.
0.0

Also check C=C/C(C)=C\CC1C(C)(O)CCC2C(C)(C)CCCC21C (stereo not given)
1.0

One more compound: CC(=O)Nc1ccc(OCC(O)CNC(C)C)cc1 (stereo not given)
0.0

Same again, this time with C/C=C(/C)C(=O)O[C@@H]1[C@H](OC(C)=O)[C@@]2(CO)C(CC1(C)C)C1=CCC3[C@@]4(C)CC[C@H](O[C@@H]5O[C@H](C(=O)O)[C@@H](O[C@@H]6O[C@H](CO)[C@@H](O)[C@H](O)[C@H]6O)[C@H](O)[C@H]5O[C@@H]5O[C@H](CO)[C@@H](O)[C@H](O)[C@H]5O)[C@](C)(CO)C4CC[C@@]3(C)[C@]1(C)C[C@H]2O (stereo not given in full)
0.0

Consider next the compound Nc1c2c(nc3ccccc13)CCCC2 in the same way.
0.0

What would you report for Cc1cc(O)ccc1Cl ?
0.0

Same read-out for COC(=O)/C(C)=C\CC12OC(C)(C)C3CC(C=C4C(=O)c5c(O)c6c(c(CCC(C)(C)Cl)c5OC431)OC1(C)CCC(=C(C)C)C6C1)C2=O (stereo not given) ?
0.0

Quick one: C[C@@H]1OC(O[C@H]2[C@H](O)[C@@H](O)[C@H](OC[C@H]3O[C@@H](OC(=O)[C@]45CCC(C)(C)CC4C4=CCC6[C@@]7(C)CC[C@H](OC8OC[C@H](O)[C@H](O)[C@H]8OC8O[C@@H](C)[C@H](O)[C@@H](O)[C@H]8O)[C@@](C)(CO)C7CC[C@@]6(C)[C@]4(C)CC5)[C@H](O)[C@@H](O)[C@@H]3O)O[C@@H]2CO)[C@H](O)[C@H](O)[C@H]1O (stereo not given in full)
0.0

Another: CC1C(=O)OC2C1CCC1(C)C=CC(=O)C3(C)OC213 (stereo not given)
0.0

Record: CCCCCCCCCCCC[C@H](C(=O)O)[C@@H](C)C(=O)O
0.0

Try the compound Nc1c2c(nc3ccccc13)CCCC2O (stereo not given)
0.0

Same question for COC(=O)C[C@H]1C(C)(C)C(=O)[C@@H]2CC3C4=CC(=O)O[C@@H](c5ccoc5)[C@]4(C)CCC3[C@@]1(C)C2=O (stereo not given in full) please.
0.0

Would you kindly repeat that for CC1(C)CC[C@]2(C(=O)O)CC[C@]3(C)C(=CCC4[C@@]5(C)CC[C@@H](O)C(C)(C)C5CC[C@]43C)C2C1 (stereo not given in full) ?
0.0

Try the compound CCOC(=O)OC(C)OC(=O)C1N2C(=O)C(NC(=O)[C@H](N)c3ccccc3)C2SC1(C)C (stereo not given in full)
0.0

What do we get for CSCCC(NC=O)C(=O)NC(Cc1ccccc1)C(=O)O (stereo not drawn) (For-Met-Phe-OH; configuration not given here) ?
0.0

Okay, and C[C@@H]1C(=O)O[C@H]2[C@H]1CC[C@@]1(C)C=CC(=O)[C@@]3(C)O[C@@]213 ?
0.0

What would you report for O=C(COc1ccc(Cl)cc1)N1CCN(Cc2ccc3c(c2)OCO3)CC1 ?
0.0

Entry to check: C[C@H]1[C@H](C)CC[C@]2(CO)CC[C@]3(C)C(=CCC4[C@@]5(C)CC[C@H](O)C(C)(C)C5CC[C@]43C)[C@H]12 (stereo not given in full)
0.0

Next compound: CCC(C)C(NC)C(=O)O (stereo not given)
0.0

// repeat for COC(=O)Nc1nc2ccc(Sc3ccccc3)cc2[nH]1 and report
0.0

Also, C[C@@H]1CC[C@H]2[C@@H](C)C(=O)O[C@@H]3O[C@@]4(C)CC[C@@H]1[C@]32OO4 please.
1.0

How about C[C@@H]1OC(O[C@H]2C(O[C@H]3CC[C@@]4(C)C(CC[C@]5(C)C4CC=C4C6CC(C)(C)CC[C@]6(C(=O)O)CC[C@]45C)[C@]3(C)CO)OC[C@H](O)[C@@H]2O)[C@H](O)[C@H](O)[C@H]1O (stereo not given in full) ?
1.0

Moving on to Cc1cc(O)cc(=O)o1
0.0

Continue with Cc1ccc(-c2cc(C(F)(F)F)nn2-c2ccc(S(N)(=O)=O)cc2)cc1
0.0

Field entry: NNC(=O)c1ccncc1
0.0

And what about the compound C/C=C1\[C@H]2C=C(C)C[C@]1(N)c1ccc(=O)[nH]c1C2 ?
0.0

Again, but for Nc1ccc(S(=O)(=O)Nc2cnc3ccccc3n2)cc1
0.0

Also Cc1cc(C(C)(C)C)c(O)c(C(C)(C)C)c1 , if possible.
0.0

What do we get for O=C(O)/C=C1\CCCc2ccccc2C1O (stereo not given) ?
0.0

Input CC(=O)OC1CC(OC(C)=O)C2(C)C(CC(OC(C)=O)C3(C)C4=CC(=O)OC(=O)C4(C)CCC32)C1(C)C (stereo not given)
0.0

###

Experiment: chemical genetic growth profiling, strain panel (AID 1159580);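 further: tested at 20 µM; growth read once vehicle control cultures reached saturation at 30 °C; 1 = growth at the plate median or of vehicle wells; lower values mean less growth of the strain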
Conditions: S. cerevisiae deletion strains, growth OD, locus YER002W, strain NOP16, active compounds read low
Out of some 5,500 compounds screened, about 2,000 (36%) were called active. Another 18% or so got no clear call; they are omitted. The list shows a part of the results.
MEASURED ENDPOINT: normalized growth
Respond with the number and no other words.

Data request, read-out normalized growth, for OC(CCN1CCCCC1)(c1ccccc1)C1CCCCC1 (centres undefined)
1.03

Another: CCNC(=O)C1OC(n2cnc3c(NCc4ccccc4)ncnc32)C(O)C1O (centres undefined)
1.01

Note, next up: C[N+](C)(C)CCO
0.998

Then what about the molecule Nc1c2c(nc3ccccc13)CCCC2O (centres undefined) ?
1.01

# repeat for C[C@@H]1O[C@H](C[N+](C)(C)C)C[C@H]1O
1.02

Same for C[C@@H](N)Cc1cnc[nH]1
1.01

Consider next the molecule CCN1CCC[C@H]1CNC(=O)c1cc(S(N)(=O)=O)ccc1OC in the same way.
1.02

And what about the molecule Nc1c2c(nc3ccccc13)CCCC2 ?
0.997

Now try CCCCCC(O)CCCC(=O)O (centres undefined) .
1.03

# repeat for NC(N)=NN=Cc1c(Cl)cccc1Cl
1.01

Next molecule up: CN=c1nc(-c2ccccc2)n(-c2ccccc2)s1
0.982

Same thing, different molecule: CNC(=O)Oc1ccc2c(c1)C1(C)CCN(C)C1N2C (centres undefined)
0.993

Another molecule to look at: NCCc1ccc(S(=O)(=O)F)cc1
1.02

Again, but for NO
1.01

###

Assign normalized growth to each entry below.
Assay: chemical genetic growth profiling, strain panel (AID 1159580);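 further: tested at 20 µM; growth read once vehicle control cultures reached saturation at 30 °C; 1 = growth at the plate median or of vehicle wells; lower values mean less growth of the strain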
Settings: S. cerevisiae deletion strains, growth OD, locus YOR316C, strain cot1, active compounds read low
In all, about 5,500 compounds went through this assay and about 2,000 (36%) were called active. About 18% were inconclusive and are not listed. The list shows a part of the results.
# print the numeric value only

What value of measured normalized growth is listed for C[C@@H]1CC[C@H]2[C@@H](C)C(=O)O[C@@H]3O[C@@]4(C)CC[C@@H]1[C@]32OO4 ?
0.94

Continue with CC1(C)CC[C@]2(C(=O)O)CC[C@]3(C)C(=CCC4[C@@]5(C)CC[C@@H](O)C(C)(C)C5CC[C@]43C)C2C1 (some centres undefined)
1.01

Continue with COC(=O)C[C@H]1C(C)(C)C2(O)OC34CC2C(=O)[C@]1(C)C3CC[C@]1(C)C4=CC(=O)O[C@H]1c1ccoc1 (some centres undefined)
1.02

Let us now turn to CNC(=O)O/N=C\C(C)(C)SC
0.987

Item: C[C@@H]1CC[C@H]2[C@@H](C)C(O)O[C@@H]3O[C@@]4(C)CC[C@@H]1[C@]32OO4 (some centres undefined)
0.433

Param item: CCCOc1ccccc1-c1nc2n[nH]nc2c(=O)[nH]1
1.01

CO[C@@]12[C@@H]3NC3CN1C1=C(C(=O)C(N)=C(C)C1=O)[C@@H]2COC(N)=O (some centres undefined) ?
0.994

Input C[C@@H]1C(=O)O[C@H]2[C@H]1CC[C@@]1(C)C=CC(=O)[C@@]3(C)O[C@@]213
1.02

Follow-up entry: CNCc1ccccc1
0.986

###

Test: chemical genetic growth profiling, strain panel (AID 1159580);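 further: tested at 20 µM; growth read once vehicle control cultures reached saturation at 30 °C; 1 = growth at the plate median or of vehicle wells; lower values mean less growth of the strain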
Conditions: S. cerevisiae deletion strains, growth OD, locus YPL055C, strain LGE1, active compounds read low
Hit rate of the full screen: of about 5,500 compounds, about 2,000 (36%) were called active. Another 18% or so got no clear call; they are omitted. The list shows a part of the results.
In plain terms, low normalized growth, meaning strictly below 1, gives criterion met, and everything else gives criterion not met.

normalized growth under 1? Item: Cn1c(CSCC(=O)Nc2ccccc2)n[nH]c1=S
criterion not met

Try O=C1ON=C(CSc2ccccc2)/C1=C/c1ccc(Cl)cc1 next.
criterion met

Same thing, different compound: C=C/C(C)=C\CC1C(C)(O)CCC2C(C)(C)CCCC21C (stereo not drawn)
criterion met

Ok, now Nc1c2ccccc2nc2ccccc12
criterion met

Same for S=C(NCc1cccnc1)Nc1ccccc1Cl
criterion met

Can you handle CC(=O)[C@]1(O)Cc2c(O)c3c(c(O)c2[C@@H](O[C@H]2C[C@H](N)[C@H](O)[C@H](C)O2)C1)C(=O)c1ccccc1C3=O next?
criterion met

Now this one: CC(=O)/C=C\[C@@H]1[C@@]2(C)CCCC(C)(C)C2CC[C@@]1(C)O (stereo partly drawn)
criterion met

# repeat for C[C@@H]1C(=O)O[C@H]2[C@H]1CC[C@@]1(C)C=CC(=O)[C@@]3(C)O[C@@]213
criterion not met

Field entry: O=C(Nc1ccc(Cl)c(Cl)c1)c1ccccc1
criterion met

Request: Nc1ccc(S(=O)(=O)c2ccc(N)cc2)cc1
criterion not met

Try this compound too: Cc1cc(O)cc(C)c1Cl
criterion met

And then N=C(N)c1ccc(OCCCCCOc2ccc(C(=N)N)cc2)cc1 , what is it?
criterion met

Entry to check: Cc1cc(O)c2c(c1)Cc1cccc(O)c1C2=O
criterion met

Now the same for CCCc1nc(-c2ccccn2)[nH]c(=O)c1CC1CC1
criterion met

Moving on to the next compound: NC(=S)COc1ccccc1Cl
criterion not met

Thanks! And Cc1cc(C(C)(C)C)c(O)c(C(C)(C)C)c1 ?
criterion met

Also Cc1cn([C@H]2C[C@H](N=[N+]=[N-])[C@@H](CO)O2)c(=O)[nH]c1=O ?
criterion not met

Again, but for N=C(N)c1ccc(OCCCCCOc2ccc(C(=N)N)cc2)cc1 (tested in a mixture with another compound)
criterion met

Try CC(C)(Sc1cc(C(C)(C)C)c(O)c(C(C)(C)C)c1)Sc1cc(C(C)(C)C)c(O)c(C(C)(C)C)c1 next.
criterion not met

// repeat for Cc1cccc(NC(=S)NCc2ccncc2)c1 and report
criterion not met

Okay, and CCN(CC)c1ccc(NC(=O)c2c(F)cccc2F)c(N(CC)CC)n1 ?
criterion met

Then what about the compound CCOC(=O)NC(=O)c1cn(Cc2cccs2)c(=O)[nH]c1=O ?
criterion not met

Same for Cc1c(Br)sc2ccc(Cl)cc12
criterion not met

Source: PubChem BioAssay AID1159580
